Test system: Setaria faberi (SETFA)
protocol_details: Post-emergence herbicidal activity, Setaria faberi
Assay type: in vivo
Design: key: 5=total damage to plant; 0=no damage to plant
reported_conditions: 1000 g/ha, evaluated after 13 days, Test 2b
Recorded SETFA damage score (0-5) by entry
measured_quantity: SETFA damage score (0-5)

smiles: Cc1nc(-c2cncc(C#N)c2)ccc1NC(=O)OC(C)(C)C
tgt: Setaria faberi (SETFA)
assay_result: 5
//
smiles: CCOC(=O)Nc1ccc(-c2cncc(F)c2)nc1C(F)(F)F
tgt: Setaria faberi (SETFA)
assay_result: 4
//
smiles: Cc1nc(-c2cncc(C(F)(F)F)c2)ccc1NC(=O)OC(C)(C)C
tgt: Setaria faberi (SETFA)
assay_result: 2
//
smiles: CC(C)(C)OC(=O)Nc1ccc(-c2cncnc2)nc1Cl
tgt: Setaria faberi (SETFA)
assay_result: 5
//
smiles: CN(C(=O)OC(C)(C)C)c1ccc(-c2cncc(C(F)(F)F)c2)nc1C(F)(F)F
tgt: Setaria faberi (SETFA)
assay_result: 1
//
smiles: CN(C(=O)OC(C)(C)C)c1ccc(-c2cccnc2)nc1C(F)(F)F
tgt: Setaria faberi (SETFA)
assay_result: 4
//
smiles: CN(C(=O)OC(C)(C)C)c1ccc(-c2cncnc2)nc1C(F)(F)F
tgt: Setaria faberi (SETFA)
assay_result: 5
//
smiles: Cc1nc(-c2cccnc2)ccc1NC(=O)OC(C)(C)C
tgt: Setaria faberi (SETFA)
assay_result: 5
//
smiles: CC(C)(C)OC(=O)Nc1ccc(-c2cncc(F)c2)nc1C(F)(F)F
tgt: Setaria faberi (SETFA)
assay_result: 5
//
smiles: Cc1nc(-c2cncc(F)c2)ccc1NC(=O)OC(C)(C)C
tgt: Setaria faberi (SETFA)
assay_result: 5
